Target desc: JAK2 (Homo sapiens (Human), UniProt O60674)
Sequence (O60674 whole entry): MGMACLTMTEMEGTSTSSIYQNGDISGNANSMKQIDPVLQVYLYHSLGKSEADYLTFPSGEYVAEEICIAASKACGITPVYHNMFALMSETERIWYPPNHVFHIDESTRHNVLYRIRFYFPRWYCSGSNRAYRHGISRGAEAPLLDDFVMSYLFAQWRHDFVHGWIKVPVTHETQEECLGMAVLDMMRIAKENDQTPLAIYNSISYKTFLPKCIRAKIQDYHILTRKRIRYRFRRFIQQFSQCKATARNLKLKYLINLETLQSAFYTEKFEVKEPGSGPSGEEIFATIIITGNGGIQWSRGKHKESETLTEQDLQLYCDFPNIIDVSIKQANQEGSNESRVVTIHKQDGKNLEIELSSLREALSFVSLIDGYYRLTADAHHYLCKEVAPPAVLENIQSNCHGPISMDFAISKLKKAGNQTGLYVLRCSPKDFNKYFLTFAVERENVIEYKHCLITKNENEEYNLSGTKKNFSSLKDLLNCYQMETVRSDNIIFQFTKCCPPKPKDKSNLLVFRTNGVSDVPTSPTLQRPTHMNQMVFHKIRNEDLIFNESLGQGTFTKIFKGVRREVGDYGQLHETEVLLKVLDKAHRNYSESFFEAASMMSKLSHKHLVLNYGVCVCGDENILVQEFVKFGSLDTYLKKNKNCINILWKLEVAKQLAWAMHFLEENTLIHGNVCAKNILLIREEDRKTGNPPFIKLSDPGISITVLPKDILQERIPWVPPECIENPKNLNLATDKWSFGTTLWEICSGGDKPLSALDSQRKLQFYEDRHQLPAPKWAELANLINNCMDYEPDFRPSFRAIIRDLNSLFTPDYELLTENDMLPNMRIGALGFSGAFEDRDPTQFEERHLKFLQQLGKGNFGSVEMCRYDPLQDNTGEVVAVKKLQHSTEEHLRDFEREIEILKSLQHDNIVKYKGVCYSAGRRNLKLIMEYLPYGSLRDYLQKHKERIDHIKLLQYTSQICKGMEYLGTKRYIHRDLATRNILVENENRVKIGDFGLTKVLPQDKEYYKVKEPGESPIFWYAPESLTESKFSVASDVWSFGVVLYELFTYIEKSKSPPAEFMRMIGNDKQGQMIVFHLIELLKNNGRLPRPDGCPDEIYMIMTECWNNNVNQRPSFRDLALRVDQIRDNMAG
Response field class: enum, chosen by comparing IC50 against group A (below 7 nM), group B (7 nM to below 30 nM), group C (30 nM or more)

Compound smiles | Classification
Cc1ccc(NC(=O)c2cccc(C(F)(F)F)c2)cc1N1CCc2nc(Nc3ccc(N4CCN(C)CC4)cc3)ncc2C1=O | group B
Cc1ccc(NC(=O)c2cccc(C(F)(F)F)c2)cc1N1CCc2nc(Nc3ccc(OCCN4CCCC4)cc3)ncc2C1=O | group C
Cc1ccc(NC(=O)c2cccc(C(F)(F)F)c2)cc1N1CCc2nc(Nc3cncnc3)ncc2C1 | group B
Cc1ccc(NC(=O)c2cc(Cl)cc(C(F)(F)F)c2)cc1N1CCc2nc(Nc3ccc(N4CCN(C)CC4)cc3)ncc2C1=O | group C
CNC(=O)c1ccc(Nc2ncc3c(n2)CCN(c2cc(NC(=O)c4cc(C(F)(F)F)ccn4)ccc2Cl)C3)cc1 | group A

Query: Note: place this molecule into its band. Item: Cc1ccc(NC(=O)CC2CCCC2)cc1N1CCc2nc(Nc3ccc(OCCN4CCCC4)cc3)ncc2C1
Response: group B

Query: Note: place this molecule into its band. Item: CNC(=O)c1ccc(Nc2ncc3c(n2)CCN(c2cc(NC(=O)c4cccc(C(F)(F)F)c4)ccc2C)C3)cn1
Response: group C

Query: Note: place this molecule into its band. Item: Cc1ccc(NC(=O)c2cc(C(F)(F)F)ccn2)cc1N1CCc2nc(Nc3ccc(N4CCN(C)CC4)cc3)ncc2C1
Response: group A

###

Target desc: JAK1 (Homo sapiens (Human), UniProt P23458)
Sequence (P23458 whole entry): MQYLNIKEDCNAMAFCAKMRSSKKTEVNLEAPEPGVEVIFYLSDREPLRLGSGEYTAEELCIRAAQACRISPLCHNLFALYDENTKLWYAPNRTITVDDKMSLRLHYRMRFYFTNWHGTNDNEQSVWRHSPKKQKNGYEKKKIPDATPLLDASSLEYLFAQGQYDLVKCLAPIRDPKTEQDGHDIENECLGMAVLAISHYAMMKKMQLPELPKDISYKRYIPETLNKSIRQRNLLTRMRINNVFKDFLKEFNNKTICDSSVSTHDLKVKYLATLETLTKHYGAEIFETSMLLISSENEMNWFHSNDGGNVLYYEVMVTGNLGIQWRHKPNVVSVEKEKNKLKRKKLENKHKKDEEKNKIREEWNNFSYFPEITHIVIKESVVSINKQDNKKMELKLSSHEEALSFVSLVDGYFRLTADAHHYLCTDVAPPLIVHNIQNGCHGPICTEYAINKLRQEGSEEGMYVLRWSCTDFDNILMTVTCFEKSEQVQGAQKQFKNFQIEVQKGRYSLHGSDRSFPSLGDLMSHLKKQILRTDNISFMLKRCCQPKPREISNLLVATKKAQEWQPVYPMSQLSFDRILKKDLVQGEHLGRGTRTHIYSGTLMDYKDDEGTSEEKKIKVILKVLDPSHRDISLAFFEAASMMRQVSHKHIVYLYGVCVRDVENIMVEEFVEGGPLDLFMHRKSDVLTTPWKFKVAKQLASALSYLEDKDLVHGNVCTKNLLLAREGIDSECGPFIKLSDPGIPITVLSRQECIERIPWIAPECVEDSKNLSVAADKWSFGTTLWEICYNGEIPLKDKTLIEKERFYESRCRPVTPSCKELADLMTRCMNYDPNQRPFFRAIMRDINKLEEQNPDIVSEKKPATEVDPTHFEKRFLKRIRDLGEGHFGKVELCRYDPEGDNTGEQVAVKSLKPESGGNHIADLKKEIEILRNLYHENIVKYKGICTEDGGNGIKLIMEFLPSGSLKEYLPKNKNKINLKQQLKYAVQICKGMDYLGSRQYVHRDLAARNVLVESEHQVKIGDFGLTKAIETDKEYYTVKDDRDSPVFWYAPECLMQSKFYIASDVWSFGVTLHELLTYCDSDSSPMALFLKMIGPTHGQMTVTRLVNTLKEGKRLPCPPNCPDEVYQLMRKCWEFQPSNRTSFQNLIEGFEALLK
Procedure summary: JAK1 kinase inhibition
Assay type: biochemical
Condition label: read-out: JAK1 % inhibition at 100 nM
Label Criterion met when inhibition at 0.1 µM is at or above 60%; anything below gets Criterion not met.

Compound smiles | Classification
Cc1ccc(NC(=O)c2cccc(C(F)(F)F)c2)cc1N1CCc2nc(Nc3ccc(C(=O)N4CCN(C)CC4)cc3)ncc2C1 | Criterion met
Cc1ccc(NC(=O)c2cccc(C(F)(F)F)c2)cc1N1CCc2nc(Nc3ccncc3)ncc2C1=O | Criterion not met
Cc1ccc(NC(=O)c2cccc(C(F)(F)F)c2)cc1N1CCc2nc(Nc3cccnc3)ncc2C1 | Criterion met
Cc1ccc(NC(=O)c2cccc(C(F)(F)F)c2)cc1N1CCc2nc(Nc3ccc(N4CCN(C)CC4)cc3)ncc2C1=O | Criterion not met
Cc1ccc(NC(=O)c2cccc(C(F)(F)F)c2)cc1N1CCc2nc(Nc3ccnc(Cl)c3)ncc2C1 | Criterion not met

Query: Reported inhibition at 0.1 µM reaches at least 60% for Cc1ccc(NC(=O)c2cccc(C(F)(F)F)c2)cc1N1CCc2nc(Nc3ccncc3)ncc2C1 ?
Response: Criterion not met

Query: Reported inhibition at 0.1 µM reaches at least 60% for Cc1ccc(NC(=O)c2cccc(C(F)(F)F)c2)cc1N1CCc2nc(Nc3ccc4c(c3)CCC(=O)N4)ncc2C1 ?
Response: Criterion met

Query: Reported inhibition at 0.1 µM reaches at least 60% for Cc1ccc(NC(=O)c2cccc(C(F)(F)F)c2)cc1N1CCc2nc(Nc3ccc(OCCN4CCCC4)cc3)ncc2C1 ?
Response: Criterion not met

###

Target desc: c-Src (Homo sapiens (Human), UniProt P12931)
Sequence (P12931 whole entry, looked up): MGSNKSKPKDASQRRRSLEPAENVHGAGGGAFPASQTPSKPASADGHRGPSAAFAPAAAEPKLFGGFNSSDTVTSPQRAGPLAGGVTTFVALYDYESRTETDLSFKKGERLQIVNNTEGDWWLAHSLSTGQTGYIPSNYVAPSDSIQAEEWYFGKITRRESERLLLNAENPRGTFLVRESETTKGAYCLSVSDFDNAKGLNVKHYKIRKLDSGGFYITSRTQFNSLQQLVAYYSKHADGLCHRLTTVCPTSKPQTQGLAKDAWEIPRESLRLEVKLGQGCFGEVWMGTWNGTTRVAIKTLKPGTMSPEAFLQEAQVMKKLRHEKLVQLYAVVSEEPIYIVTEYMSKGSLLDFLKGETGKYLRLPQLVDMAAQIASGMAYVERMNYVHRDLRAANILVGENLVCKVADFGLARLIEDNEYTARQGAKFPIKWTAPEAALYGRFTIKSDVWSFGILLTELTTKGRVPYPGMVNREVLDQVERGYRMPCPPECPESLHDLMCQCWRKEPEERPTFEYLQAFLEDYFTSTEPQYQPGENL
Procedure summary: TR-FRET c-Src kinase assay
Format: biochemical
Condition label: read-out: c-SRC % inhibition at 1 μM; 1 μM; ATP 50 μM
Label Met when inhibition at 1 µM is at or above 90%; anything below gets Not met.

Field: example entries. Status: answers known.
Compound smiles | Classification
CNC(=O)c1ccc(Nc2ncc3c(n2)CCN(c2cc(NC(=O)c4cc(C(F)(F)F)ccn4)ccc2Cl)C3)cc1 | Met
Cc1ccc(NC(=O)CCC(F)(F)F)cc1N1CCc2nc(Nc3ccc(C(=O)N4CCN(C)CC4)cc3)ncc2C1 | Not met
Cc1ccc(NC(=O)c2cccc(C(F)(F)F)c2)cc1N1CCc2nc(Nc3ccc(OCCCN4CCN(C)CC4)cc3)ncc2C1=O | Not met
Cc1cc(Nc2ncc3c(n2)CCN(c2cc(NC(=O)c4cccc(C(F)(F)F)c4)ccc2Cl)C3=O)ccc1N1CCN(C)CC1 | Not met
Cc1ccc(NC(=O)c2cc(Cl)cc(C(F)(F)F)c2)cc1N1CCc2nc(Nc3ccc(N4CCN(C)CC4)cc3)ncc2C1=O | Met
Cc1ccc(NC(=O)c2cccc(C(F)(F)F)c2)cc1N1CCc2nc(Nc3ccc(C(N)=O)nc3)ncc2C1 | Met

Query: Reported inhibition at 1 µM reaches at least 90% for CN1CCN(c2ccc(Nc3ncc4c(n3)CCN(c3cc(NC(=O)c5cccc(C(F)(F)F)c5)ccc3Cl)C4)cc2)CC1 ?
Response: Met

Query: Reported inhibition at 1 µM reaches at least 90% for Cc1ccc(NC(=O)c2cccc(C(F)(F)F)c2)cc1N1CCc2nc(Nc3ccc(C(=O)NC4CC4)nc3)ncc2C1 ?
Response: Met

###

Consider compounds characterized by their IC50 with c-Src (Homo sapiens (Human), UniProt P12931).
The figure you give is taken to be in nM; do not add the unit.

Compound | IC50 [nM]
CNC(=O)c1ccc(Nc2ncc3c(n2)CCN(c2cc(NC(=O)c4cc(F)cc(C(F)(F)F)c4)ccc2Cl)C3)cc1 | 20
CNC(=O)c1ccc(Nc2ncc3c(n2)CCN(c2cc(NC(=O)c4cc(C(F)(F)F)ccn4)ccc2Cl)C3)cc1 | 15
Cc1ccc(NC(=O)c2ccc(C(F)(F)F)s2)cc1N1CCc2nc(Nc3ccc(OCCN4CCCC4)cc3)ncc2C1 | 2
CNC(=O)c1ccc(Nc2ncc3c(n2)CCN(c2cc(NC(=O)c4cccc(C(F)(F)F)c4)ccc2Cl)C3)cc1 | 13
Cc1ccc(NC(=O)CC2CCCC2)cc1N1CCc2nc(Nc3ccc(OCCN4CCCC4)cc3)ncc2C1 | 1

Query: Which measured IC50 value corresponds to Cc1ccc(NC(=O)c2cc(C(F)(F)F)ccn2)cc1N1CCc2nc(Nc3ccc(N4CCN(C)CC4)cc3)ncc2C1 ?
Response: 6

Query: Which measured IC50 value corresponds to Cc1ccc(NC(=O)CC(C)C(F)(F)F)cc1N1CCc2nc(Nc3ccc(OCCN4CCN(C)CC4)cc3)ncc2C1 (stereo not drawn) ?
Response: 66

Query: Which measured IC50 value corresponds to Cc1ccc(NC(=O)c2cccc(C(F)(F)F)c2)cc1N1CCc2nc(Nc3ccc(C(=O)NC4CCN(C)CC4)nc3)ncc2C1 ?
Response: 2.4

Query: Which measured IC50 value corresponds to Cc1ccc(NC(=O)c2cccc(Br)c2)cc1N1CCc2nc(Nc3ccc(N4CCN(C)CC4)cc3)ncc2C1=O ?
Response: 19

###

Target desc: c-Src (Homo sapiens (Human), UniProt P12931)
Procedure summary: TR-FRET c-Src kinase assay
Format: biochemical
Condition label: read-out: c-SRC % inhibition at 100 nM; 100 nM; ATP 50 μM
Label Condition met when inhibition at 0.1 µM is at or above 90%; anything below gets Condition not met.

Field: example entries. Status: answers known.
Compound smiles | Classification
Cc1ccc(NC(=O)NC2CCCC2)cc1N1CCc2nc(Nc3ccc(OCCN4CCCC4)cc3)ncc2C1 | Condition met
Cc1ccc(NC(=O)c2cc(C(F)(F)F)ccn2)cc1N1CCc2nc(Nc3ccc(C(=O)N4CCN(C)CC4)cc3)ncc2C1 | Condition met
Cc1ccc(NC(=O)CCC(F)(F)F)cc1N1CCc2nc(Nc3ccc(N4CCN(C)CC4)cc3)ncc2C1 | Condition not met

Next, consider the following compound.
Query: Reported inhibition at 0.1 µM reaches at least 90% for O=C(Nc1ccc(Cl)c(N2CCc3nc(Nc4ccc(OCCN5CCCC5)cc4)ncc3C2=O)c1)c1cccc(C(F)(F)F)c1 ?
Response: Condition not met

###

Target desc: UniProt:O60674
Procedure summary: TR-FRET JAK2 kinase assay
Assay type: biochemical
Condition label: read-out: JAK2 % inhibition at 1 μM; 1 μM; ATP 10 μM
Quantity measured: inhibition at 1 µM (%)
The figure you give is taken to be in %; do not add the unit.

Compound smiles | inhibition at 1 µM / %
Cc1ccc(NC(=O)c2cccc(C(F)(F)F)c2)cc1N1CCc2nc(Nc3ccc(C(=O)NCCCN4CCCC4)cc3)ncc2C1=O | 96
Cc1ccc(NC(=O)CCC(F)(F)F)cc1N1CCc2nc(Nc3ccc(OCCN4CCCC4)cc3)ncc2C1 | 93

Query: Which measured inhibition at 1 µM value corresponds to Cc1ccc(NC(=O)N2CCCCC2)cc1N1CCc2nc(Nc3ccc(OCCN4CCCC4)cc3)ncc2C1 ?
Response: 94

Query: Which measured inhibition at 1 µM value corresponds to Cc1ccc(NC(=O)c2cc(C(F)(F)F)ccn2)cc1N1CCc2nc(Nc3ccc(C(=O)N4CCN(C)CC4)cc3)ncc2C1=O ?
Response: 93

Query: Which measured inhibition at 1 µM value corresponds to CN1CCN(c2ccc(Nc3ncc4c(n3)CCN(c3cc(NC(=O)c5cc(F)cc(C(F)(F)F)c5)ccc3Cl)C4=O)cc2)CC1 ?
Response: 97
